Hi there, I'd appreciate the recorded HepG2 cells mean TOX50 for every entry that follows.
# Test system: HepG2 cells
# Protocol Summary: HepG2 cytotoxicity assay
# Assay type: cell-based
# Particulars: mean; HepG2 cells
Numbers only, in µM.

In the examples that follow, each entry is paired with its recorded HepG2 cells mean TOX50.
Cc1ccc(Cn2nc(Cl)c(N3CCNCC3)cc2=O)cc1NC(=O)Nc1ccc(-c2ccccc2)cc1    4.79
Cl.N=C1C=C(N)C(=O)c2ccccc21    0.52
CC1(CCN2CCC(c3c[nH]c4cnccc34)CC2)CCCc2c(Br)cccc2C1=O.Cl (stereo not shown)    5.25
Nc1nc(N)c2cc(NC(=O)c3ccc(Cl)c(Cl)c3)ccc2n1    2.14
O=C(CCC1CCCC1)N(Cc1ccc(-c2ccc(CNCCc3ccccc3)cc2)cc1)C1CCCNC1.O=C(O)C(F)(F)F (stereo not shown)    5.19
Cc1ccc(Cn2nc(Cl)c(N3CCCNCC3)cc2=O)cc1NC(=O)Nc1ccc(-c2ccccc2)cc1.O=C(O)C(F)(F)F    7.25

Kindly give each listed record's HepG2 cells mean TOX50.
1. CCOc1ccc2c(=NN=Cc3cc(OC)c(OC)cc3OC)cc(C)[nH]c2c1
2. CN(C)CCN1CCN(CCCN2c3ccccc3Sc3ccc(C(F)(F)F)cc32)CC1.Cl
3. CC(C)(CNC(=O)[C@H]1CCCN1)c1nc(-c2ccc(Cl)c(O)c2)c(-c2ccncc2)[nH]1.Cl
4. Cc1c(N=O)cc(C(C)(C)C)c(O)c1C(=O)Nc1ccc([N+](=O)[O-])cc1Cl
5. Cc1c(Cn2nc(Cl)c(N3CCNCC3)cc2=O)cccc1NC(=O)Nc1ccc(-c2ccccc2)cc1.O=C(O)C(F)(F)F
6. Cl.OC(CNCCCCCCNCC(O)c1ccc(Cl)c(Cl)c1)c1ccc(Cl)c(Cl)c1 (stereo not shown)
7. CN1CCc2cc(NS(=O)(=O)c3ccc(-c4ccc(Cl)cc4)cc3)c(OCCCN3CCCCC3)cc2CC1.Cl
8. CN1CCCC1CCNc1ncc2c(-c3ccc(NC(=O)Nc4cc(C(F)(F)F)ccc4F)c(F)c3)nn(C)c2n1.O=C(O)C(F)(F)F (stereo not shown)

1: 12.17; 2: 77.62; 3: 32.74; 4: 1.78; 5: 4.22; 6: 4.27; 7: 2.23; 8: 4.62

Kindly give each listed record's HepG2 cells mean TOX50.
1. Cl.O=S(=O)(Nc1cc2c(cc1OCCCN1CCCCC1)CCNCC2)c1ccc(-c2ccc(Cl)cc2)cc1
2. Cl.Nc1c(I)cc(C(=O)Nc2ccc3nc4c(c(N)c3c2)CCCC4)cc1I
3. CN1CCN(c2ccc(Nc3ncc([N+](=O)[O-])c(Nc4ccccc4O)n3)cc2)CC1.O=C(O)C(F)(F)F
4. CC(C)(CN)c1cc(-c2ccc(Cl)c(O)c2)c(-c2ccncc2)o1.Cl
5. CC(C)(CNC(=O)[C@@H]1CCCCN1)c1nc(-c2ccc(Cl)c(O)c2)c(-c2ccncc2)[nH]1.Cl

1. 4.37
2. 4.52
3. 1.82
4. 9.98
5. 38.91

Kindly give each listed record's HepG2 cells mean TOX50.
1. CC(C)(CNC(=O)[C@H]1CCCCN1)c1nc(-c2ccc(Cl)c(O)c2)c(-c2ccncc2)[nH]1
2. CCN(CC)CCN(Cc1ccc(-c2ccc(C(F)(F)F)cc2)cc1)C(=O)Cn1cc(Cc2cnn(C)c2)c(=O)nc1/C=C/c1cccc(F)c1F

28.96
9.69

Kindly give each listed record's HepG2 cells mean TOX50.
1. O=C(O)CCSSc1cccc[n+]1[O-]
2. CN1CCN(CCCNc2ncc3c(-c4ccc(NC(=O)Nc5cc(C(F)(F)F)ccc5F)c(F)c4)nn(C)c3n2)CC1.O=C(O)C(F)(F)F
3. Cc1cc(F)ccc1-c1nc(NCCCNCCc2ccccc2)nc2c1ccc(=O)n2-c1c(F)cccc1F.O=C(O)C(F)(F)F
4. ON=C1CCc2cc(-c3cc(-c4ccc(OC5CCNCC5)cc4)oc3-c3ccncc3)ccc21

19.05
4.90
12.59
5.01

Kindly give each listed record's HepG2 cells mean TOX50.
1. CCn1c2ccccc2c2cc(C=NN=c3cc(C)[nH]c4ccccc34)ccc21
2. NCC1(c2nc(-c3ccc(Cl)c(O)c3)c(-c3ccncc3)[nH]2)CCCCC1
3. Cc1c(Cn2ncc(N3CCC(N)CC3)c(Cl)c2=O)cccc1NC(=O)Nc1ccc(-c2ccccc2)cc1.O=C(O)C(F)(F)F
4. Cc1ccc(Cn2ncc(N3CCCNCC3)c(Cl)c2=O)cc1NC(=O)Nc1ccc(-c2ccccc2)cc1
5. O=C(Nc1ccc(Cl)cc1)c1cc(Cl)cc2nc(C(F)(F)F)[nH]c12

1: 5.82; 2: 11.90; 3: 22.90; 4: 7.86; 5: 2.82

* * *

# Test system: P. falciparum stage V female gametocytes
# Protocol Summary: P. falciparum female gametocyte activation assay (Pf FGAA), 24 h or 48 h preincubation, Pfs25 expression readout
# Assay type: cell-based, Plasmodium falciparum NF54
# Particulars: P. falciparum female gametocytes; mean; read-out: Gametocytes mean Pf FGAA IC50
# Procedure: P. falciparum NF54 (originally isolated from an imported malaria case in the Netherlands in the 1980s; BEI Resources, cat. no. MRA-1000) asexual-stage culture was performed as described by Trager and Jensen[37]. […] Sexual-stage development was monitored microscopically by Giemsa-stained thin blood smears at day 7 (mainly asexual stages and stages I to III gametocytes) and day 14 (stages IV and V gametocytes). […]
Assay Readout: IC50 (nM)
Give bare numbers, in nM.

In the examples that follow, each entry is paired with its recorded IC50.
NC(=Nc1nc(-c2ccccn2)cc2ccccc12)c1cccc(Cl)c1    50
O=C(Nc1nc(-c2ccccn2)cs1)c1ccc(Br)s1    1160

Let us examine a further case.
Give the measured IC50 of NCCCNc1nc(Nc2ccc(C(F)(F)F)cc2F)c2c(=O)[nH]ccc2n1.O=C(O)C(F)(F)F . 1600

* * *

# Test system: HepG2 cells
# Protocol Summary: HepG2 cytotoxicity assay
# Format: cell-based
# Particulars: HepG2 cells; mean
Hi there, I'd appreciate the recorded HepG2 cells mean TOX50 for every entry that follows.
Answers are plain numbers, in µM.

In the examples that follow, each entry is paired with its recorded HepG2 cells mean TOX50.
COc1ccc(OC)c(-c2cccc(-c3cccc(NC(=O)c4ccc([N+](=O)[O-])o4)c3)n2)c1 [TCMDC-124799]    3.63
CC(C)(C)c1ccc(CN2CCC(CNC(=O)c3cc(-c4cccc(F)c4)cs3)C2)cc1.O=C(O)C(F)(F)F (centres unmarked) [TCMDC-134444]    6.61
O=C(Nc1ccc([N+](=O)[O-])cc1)Nc1cc(OCC(F)(F)F)cc(OCC(F)(F)F)c1 [TCMDC-124533]    6.24

Let us examine a further case.
Give the measured HepG2 cells mean TOX50 of Cc1sc2nc(CN3CCCC3)nc(-n3c(NCCO)nc4ccccc43)c2c1C [TCMDC-124811] . 25.73

* * *

# System: HepG2 cells
# Protocol Summary: HepG2 cytotoxicity assay
# Type: cell-based
# Particulars: HepG2 cells; mean
The label Y is reserved for HepG2 cells mean TOX50 strictly under 10 µM; N covers values equal to or above it.

Below are worked cases with known answers.
Fc1ccc2[nH]c(-c3cccc(-c4ccc(CN5CCC(CCN6CCCCC6)CC5)cc4)c3)nc2c1.O=C(O)C(F)(F)F [TCMDC-133940]    Y
CC1Cc2ccccc2N1S(=O)(=O)c1cccc(C(=O)Nc2nc(-c3ccccn3)cs2)c1 (centres unmarked) [TCMDC-124559]    N
O=C(NCC1CCN(Cc2cccc(C(F)(F)F)c2)C1)c1cc(-c2cccc(F)c2)cs1.O=C(O)C(F)(F)F (centres unmarked) [TCMDC-134484]    N
Cc1cc(I)ccc1Nc1nc2nonc2nc1Nc1ccc(I)cc1C [TCMDC-124083]    Y
Cl.N[C@@H](CCNC1CCN(c2cccc(C(F)(F)F)c2)CC1)Cc1ccc(F)c(F)c1 [TCMDC-132301]    Y

Continue with the next compound.
Would you kindly verify if HepG2 cells mean TOX50 of COc1ccc(-c2csc3ncnc(Cl)c23)cc1 [TCMDC-123805] is strictly less than 10 µM? Y

* * *

# System: HepG2 cells
# Protocol Summary: HepG2 cytotoxicity assay
# Assay type: cell-based
# Particulars: mean
Assay Readout: HepG2 cells mean TOX50 (µM)
Give bare numbers, in µM.

Nc1cc2c(C3CCN(CC4CCN(C(=O)/C=C/c5ccc(Cl)c(Cl)c5)CC4)CC3)c[nH]c2cn1    6.24
CC(Cc1ccc(CNC(=O)NCc2ccc(CC(C)NCCc3cccc(Cl)c3)cc2)cc1)NCCc1cccc(Cl)c1 (stereo not shown)    3.94
O=C(Nc1cc(Cl)c(Cl)cc1NC(=O)c1cccc(-c2ccccc2)c1O)c1cccc(-c2ccccc2)c1O    3.09
COc1ccc(Nc2nccc(-c3ccc4ccnc(NCCCCN)c4c3)n2)cc1    14.29
CN(C)CCNCc1cccc(-c2ccc3c(Nc4ccc(Oc5ccccn5)cc4)ccnc3c2)c1    3.98
CCc1ccc(C2CCN(CCCCNC(=O)c3ccc(NC(=O)c4ccc(Cl)cc4)cc3)CC2)c(OCCO)c1    5.37

Kindly give each listed record's HepG2 cells mean TOX50.
1. CC(C)(CN)c1nc(-c2ccc(Br)c(O)c2)c(-c2ccncc2)[nH]1.Cl
2. CN(CCCNCc1ccc2ccccc2c1)CCCNCc1ccc2ccccc2c1.Cl
3. COc1ccc2ccccc2c1CCCCN1CCN(CC(c2ccc(F)cc2)N2CCC2)CC1.O=C(O)C(F)(F)F (stereo not shown)
4. Cl.c1ccc2c(C3CCN(CCCCOc4ccc5c(c4)CCN(CC4CC4)CC5)CC3)c[nH]c2c1
5. CCCCOc1cc(OC)c2ccccc2c1CCNCCCCNCCc1c(OCCCC)cc(OC)c2ccccc12.CS(=O)(=O)O

1: 45.82; 2: 5.01; 3: 4.37; 4: 5.15; 5: 1.97

Kindly give each listed record's HepG2 cells mean TOX50.
1. CS(=O)(=O)O.FC(F)(F)COc1ccc(CNCCCCCCNCc2ccc(OCC(F)(F)F)c3ccccc23)c2ccccc12
2. Cc1noc(C)c1-c1ccc2c(Nc3nccc4ccccc34)c(C(N)=O)cnc2c1
3. O=C(NC1CCN(CCN2CCC(c3c[nH]c4ccccc34)CC2)CC1)c1ccc(-c2ccc(C(F)(F)F)cc2)cc1

2.46
3.85
4.68

Kindly give each listed record's HepG2 cells mean TOX50.
1. O=C(NCC1CCN(CCN2CCC(c3cn(CCO)c4ccccc34)CC2)CC1)c1ccc(-c2ccc(C(F)(F)F)cc2)cc1
2. CC(Cc1ccc(NC(=O)c2ccc(CC(C)NCc3ccc(Cl)cc3)cc2)cc1)NCCc1cccc(Cl)c1 (stereo not shown)

2.69
4.03

Kindly give each listed record's HepG2 cells mean TOX50.
1. COc1ccc(CCNCCCCNCCc2ccc(OC)c3ccccc23)c2ccccc12.CS(=O)(=O)O
2. CCn1c(-c2nonc2N)nc2c(-c3cccc(NC(=O)NC45CC6CC(CC(C6)C4)C5)c3)ncc(OCCCN)c21.O=C(O)C(F)(F)F
3. COc1cc2ccccc2cc1CCNCCCCNCCc1cc2ccccc2cc1OC.CS(=O)(=O)O

1. 2.14
2. 6.10
3. 1.66

Kindly give each listed record's HepG2 cells mean TOX50.
1. CN(C)CCCNCc1cn(S(=O)(=O)c2ccccc2Cl)c2ccccc12
2. N=C(N)Nc1nc(-c2ccc(NCc3ccc(CNc4cccc(-c5csc(NC(=N)N)n5)c4)cc3)cc2)cs1
3. CN(C)CCN(C)Cc1cccc(-c2ccc3c(Nc4ccc(F)cc4Cl)ccnc3c2)c1
4. CC(Cc1ccc(NC(=O)c2ccc(CNCCc3ccccc3)cc2)cc1)NCCc1cccc(Cl)c1.Cl (stereo not shown)

1: 11.78; 2: 4.79; 3: 6.10; 4: 4.17

Kindly give each listed record's HepG2 cells mean TOX50.
1. COc1cc2nc(N3CCN(C(=O)c4c(Cl)nsc4-c4ccccc4Cl)CC3)nc(N)c2cc1OC.O=C(O)C(F)(F)F
2. Clc1ccc(/N=C(/NCCCCCCCN/C(=N\c2ccc(Cl)cc2)Nc2ccc(Cl)cc2)Nc2ccc(Cl)cc2)cc1
3. CC(C)Cn1cc(C2CCN(CCN3CCC(CNC(=O)c4ccc(-c5ccc(C(F)(F)F)cc5)cc4)CC3)CC2)c2ccccc21
4. CC(C)NCc1ccc(OCc2cccc(COc3ccc(CNC(C)C)cc3I)c2)c(I)c1.Cl
5. COC(=O)c1ccc(-c2ccc(C(=O)NCC3CCN(c4nc(N)c5cc(OC)c(OC)cc5n4)CC3)cc2)cc1

[5.89, 2.00, 4.80, 1.64, 6.10]
